Tested on: HCM-SANG-0291-C15 (oesophageal cancer organoid)
EXPERIMENT_NOTES: activity (1 - area under the dose-response curve within the screened range) (fraction); higher = more sensitive
PROTOCOL_CONDITIONS: ECM percentage in culture prior to screening 80 %; treatment time: 72 h
Values of activity greater than or equal to 0.2 map to 1 (yes); values below map to 0 (no).

O=c1cc(N2CCOCC2)oc2c(-c3cccc4c3sc3ccccc34)cccc12 [NU7441]
0 (no)
O=C(CCCCCCC(=O)Nc1ccccc1)NO [Vorinostat]
1 (yes)
CNC(=O)c1cc(Oc2ccc(NC(=O)Nc3ccc(Cl)c(C(F)(F)F)c3)cc2)ccn1 [Sorafenib]
0 (no)
C[C@@H]1COCCN1c1cc(C2([S@](C)(=N)=O)CC2)nc(-c2cc[nH]c3nccc2-3)n1 [AZD6738]
1 (yes)
COc1cc2c(Nc3ccc(NC(=O)c4ccccc4)cc3)ncnc2cc1OCCCN1CCOCC1
0 (no)
CCNC(=O)C[C@@H]1N=C(c2ccc(Cl)cc2)c2cc(OC)ccc2-n2c(C)nnc21 [I-BET-762]
0 (no)
CC(=O)O[C@H]1C(=O)[C@@]2(C)[C@H]([C@H](OC(=O)c3ccccc3)[C@]3(O)C[C@H](OC(=O)[C@H](O)[C@@H](NC(=O)c4ccccc4)c4ccccc4)C(C)=C1C3(C)C)[C@]1(OC(C)=O)CO[C@@H]1C[C@@H]2O [Paclitaxel]
1 (yes)
